test system: diverse panel of viruses; test: Broad antiviral screening, summary over all viruses; type: cell-based; settings: across the panel of viruses; read-out: median EC50
readout kind: pEC50
Field pEC50 (float): negative decimal logarithm of the concentration in molar.

Noted for O=C(C=Cn1cnc(-c2cc(C(F)(F)F)cc(C(F)(F)F)c2)n1)NNc1ccccn1 (stereo in doubt) [verdinexor] : its pEC50 reads 5.70

###

system: HPV-18; experiment: HPV-18 DNA amplification in organotypic raft culture of PHKs (qPCR); type: cell-based, human papillomavirus; conditions: Human papillomavirus
readout kind: EC50 (µM)
The reply should contain only the number, in µM.

Summary for this compound, O=C(C=Cn1cnc(-c2cc(C(F)(F)F)cc(C(F)(F)F)c2)n1)NNc1ccccn1 (stereo in doubt) [verdinexor] : EC50 is 8.3
